Field: GFP response, % of DMSO. Provide a value for each of the compounds that follow.
assay: modulators of CIT2-GFP expression in yeast, confirmation, S. cerevisiae, GFP fusion, cherry picks, mother/daughter gates (AID 2274); settings: S. cerevisiae CIT2-GFP strain, flow cytometry, 3 h; measured here: daughter cell gate; at 10 µM; stronger effect = higher value
Give bare numbers, in %.

Observe how each entry below is paired with its result.
>>> result_value("Cc1ccc(S(=O)(=O)Cc2cc(F)c([N+](=O)[O-])cc2[N+](=O)[O-])cc1")
84.1
>>> result_value("O=C(NCc1ccncc1)C12CC3CC(CC(Cl)(C3)C1)C2")
105
>>> result_value("O=C(c1ccccc1F)N1CCN(c2ccccc2)CC1")
101

Record O=C(c1ccccc1)c1ccccc1N1C(=O)C=CC1=O , field GFP response, % of DMSO: 95.2
